Source: patent US20250295799A1

Target: T1, human glypican-3 (GPC3) (human, UniProt P51654 25-554)
T1 construct: Endogenous on JHH-7, JHH-5, HepG2 and NCI-H446 tumour cells, or transiently expressed on CHO-S cells from a pTT5 plasmid; also called hGPC3; huGPC3
Assay: flow cytometry on JHH-5 cells (GPC3-mid);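 note: antibody binding to cells at 4 °C for 24 h, detected with anti-human AF647 as geometric mean fluorescence of live cells versus antibody concentration, fitted by specific binding with Hill slope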
For each record, write down the corresponding Bmax (MFI).
Numbers only, in MFI.

Below: 4 binders and their reported Bmax (MFI).
H18L6_LC_G34Q mAb, v40208 (antibody, human IgG1, kappa, V domains shown, Full-size IgG1/kappa) VH: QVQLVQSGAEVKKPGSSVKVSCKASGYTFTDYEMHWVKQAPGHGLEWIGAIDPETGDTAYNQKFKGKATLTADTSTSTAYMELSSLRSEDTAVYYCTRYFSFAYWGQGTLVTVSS VL: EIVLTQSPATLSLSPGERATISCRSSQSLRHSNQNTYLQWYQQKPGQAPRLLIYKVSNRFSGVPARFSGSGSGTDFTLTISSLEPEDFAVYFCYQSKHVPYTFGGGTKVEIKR; 4360
H18L6_LC_G34V mAb, v40211 (antibody, human IgG1, kappa, V domains shown, M3-H18L6 chains with the stated light chain point mutation, IgG1/kappa) VH: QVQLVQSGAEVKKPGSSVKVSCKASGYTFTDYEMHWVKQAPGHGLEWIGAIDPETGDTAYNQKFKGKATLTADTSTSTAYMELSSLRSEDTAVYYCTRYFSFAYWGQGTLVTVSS VL: EIVLTQSPATLSLSPGERATISCRSSQSLRHSNVNTYLQWYQQKPGQAPRLLIYKVSNRFSGVPARFSGSGSGTDFTLTISSLEPEDFAVYFCYQSKHVPYTFGGGTKVEIKR; 2940
H18L6_LC_G34H mAb, v40205 (antibody, human IgG1, kappa, V domains shown, M3-H18L6 chains with the stated light chain point mutation, IgG1/kappa) VH: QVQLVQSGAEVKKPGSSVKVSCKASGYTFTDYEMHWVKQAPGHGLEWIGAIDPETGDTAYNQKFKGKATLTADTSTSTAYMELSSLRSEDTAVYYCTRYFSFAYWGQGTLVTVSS VL: EIVLTQSPATLSLSPGERATISCRSSQSLRHSNHNTYLQWYQQKPGQAPRLLIYKVSNRFSGVPARFSGSGSGTDFTLTISSLEPEDFAVYFCYQSKHVPYTFGGGTKVEIKR; 4580
H18L6_LC_G34D mAb, v40203 (antibody, human IgG1, kappa, V domains shown) VH: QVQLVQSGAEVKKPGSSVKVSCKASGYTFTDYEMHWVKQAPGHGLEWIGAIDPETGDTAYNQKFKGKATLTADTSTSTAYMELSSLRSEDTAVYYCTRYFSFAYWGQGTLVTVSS VL: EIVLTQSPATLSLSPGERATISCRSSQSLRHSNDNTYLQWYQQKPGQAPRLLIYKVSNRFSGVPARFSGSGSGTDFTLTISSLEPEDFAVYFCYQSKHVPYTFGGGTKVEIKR; 4280

Consider the record given below.
[ask] GET /values?readout=Bmax (MFI)&item= H18L6_LC_N33E mAb, v40213 (antibody, human IgG1, kappa, V domains shown, M3-H18L6 chains with the stated light chain point mutation, IgG1/kappa) VH: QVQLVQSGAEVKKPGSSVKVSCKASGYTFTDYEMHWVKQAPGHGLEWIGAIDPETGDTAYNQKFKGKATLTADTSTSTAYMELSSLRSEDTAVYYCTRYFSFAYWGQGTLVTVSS VL: EIVLTQSPATLSLSPGERATISCRSSQSLRHSEGNTYLQWYQQKPGQAPRLLIYKVSNRFSGVPARFSGSGSGTDFTLTISSLEPEDFAVYFCYQSKHVPYTFGGGTKVEIKR
[reply] 1940
